Source listed as patent US20260125382A1.

- system.tested: CDK2 (Homo sapiens, UniProt P24941)
- Construct: endogenous in cells; host or cells: MDA-MB-231
- protocol.summary: CDK protein degradation activity (Western blotting), CDK2
- Type: cell-based
- experimental.parameters: MDA-MB-231 cells, 0.1 μM, 16 hours, Western blot
test.readout: Enzyme degradation CDK2 (% remaining) @ 0.1 μM (%)

Field: example entries. Status: answers known.
| compound | unit.descriptor | data.value |
| --- | --- | --- |
| O=C1CC[C@H](N2C(=O)c3ccc(OCC(=O)N4CCC(CN5CCN(c6ccc(Nc7ncnc8c7ncn8C7CC(NC(=O)Cc8ccccc8)C7)cc6)CC5)CC4)cc3C2=O)C(=O)N1 (stereo partly shown) [Compound 175] | % | 100 |
| O=C1CC[C@H](N2C(=O)c3ccc(N4CC(C(=O)N5CCN(CC6CCN(c7ccc(Nc8ncnc9c8ncn9C8CC(NC(=O)Cc9ccccc9)C8)cc7)CC6)CC5)C4)cc3C2=O)C(=O)N1 (stereo partly shown) [Compound 331] | % | 50 |
| Cc1cccc(C(=O)N[C@H]2C[C@@H](n3cnc4c(NCc5ccc(OCC6CCN(C(=O)CNc7cccc8c7C(=O)N([C@H]7CCC(=O)NC7=O)C8=O)CC6)cc5)ncnc43)C2)n1 [Compound 109] | % | 40 |

A = O=C1CC[C@H](N2C(=O)c3ccc(N4CCC(CN5CCC(CNc6ncnc7c6ncn7C6CC(NC(=O)Cc7ccccc7)C6)CC5)CC4)cc3C2=O)C(=O)N1 (stereo partly shown) [Compound 181]
B = O=C1CC[C@H](N2C(=O)c3cccc(OCC(=O)N4CCC(OCCN5CCN(c6ccc(Nc7ncnc8c7ncn8C7CC(NC(=O)Cc8ccccc8)C7)cc6)CC5)CC4)c3C2=O)C(=O)N1 (stereo partly shown) [Compound 246]
C = O=C1CC[C@H](N2C(=O)c3cccc(NCC(=O)N4CCC(CN5CCC(CNc6ncnc7c6ncn7[C@H]6C[C@@H](NC(=O)c7c(Cl)cccc7Cl)C6)CC5)CC4)c3C2=O)C(=O)N1 [Compound 170]
D = Cc1cccc(C(=O)NC2CC(n3cnc4c(NC5CCN(C(=O)CC6CCN(c7ccc8c(c7)C(=O)N([C@H]7CCC(=O)NC7=O)C8=O)CC6)CC5)ncnc43)C2)n1 (stereo partly shown) [Compound 53]
Problem: Rank ascending by Enzyme degradation CDK2 (% remaining) @ 0.1 μM. Give the labels in the order requested.
Solution: C, A, B, D
